# measurement.description: method code SF, from DOI: 10.1246/bcsj.55.1489
# experimental.parameters: pH 7.0
measured.parameter: logD
Please give only the number in your answer, with no unit.

Q: Report logD for COc1cc(-n2nc(C)cc2OC)nc(OC)n1
Result: 1.86

Q: Provide only the value of recorded logD for COc1cc(C)nn1-c1ccncn1
Result: 0.5

Q: Given COc1cc(-n2c(C)cc(=O)n2C)nc(C)n1 , respond with its logD.
Result: 0.38

Q: Name the recorded logD of the compound listed here: Cc1cc(-n2c(=O)cc(C)n2C)nc(C)n1
Result: 0.24

Q: Check the records and state logD for COc1cc(-n2c(=O)cc(C)n2C)nc(C)n1
Result: 0.7

Q: Answer with reported logD of Cc1cc(C)nc(-n2c(C)cc(=O)n2C)n1
Result: 0.51

Q: Indicate its recorded logD; the compound in question is COc1cc(-n2c(=O)cc(C)n2C)ncn1
Result: 0.3

Q: Specify measured logD for COc1nc(C)cc(-n2[nH]c(C)cc2=O)n1 .
Result: 1.03

Q: Fill in reported logD for this entry: COc1cc(C)nn1-c1nc(C)cc(C)n1
Result: 0.73

Q: Hello, please tell me recorded logD for this one: COc1cc(-n2nc(C)cc2OC)ncn1
Result: 1.53

Q: Provide measured logD value, entry: COc1cc(C)n(-c2nc(C)cc(C)n2)n1
Result: 1.82

Q: Give recorded logD. COc1ccnc(-n2nc(C)cc2OC)n1
Result: 1.01

Q: Annotate the compound COc1cc(C)n(-c2ccncn2)n1 with its measured logD.
Result: 2.21
